System: ATP;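 note: ATP exposure 15 min at 22 °C before imaging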
Assay: switch fluorescence ratio, 500 uM ATP over buffer (Cy3 cluster intensity, sum of 5 cycles each) (fold (ratio)); higher = stronger signal-on switching upon ATP binding; sequences stand for … in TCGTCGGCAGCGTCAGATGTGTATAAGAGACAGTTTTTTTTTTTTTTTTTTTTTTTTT…TC
Conditions: aptamer strand: ATP DNA aptamer (quencher-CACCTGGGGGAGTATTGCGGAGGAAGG + anchor), 100 nM annealed; ATP concentration: 500 uM
I'd be grateful if you could share measured switch fluorescence ratio for these entries.

Examples from the recorded data:
Prompt: Which switch fluorescence ratio reading was recorded for the sequence ACTTTGTATG ?
Response: 1

Prompt: Also, CAGATAATAT please.
Response: 1.04

Prompt: Record: TAATTTGGTT
Response: 1.01

Prompt: Try the sequence TTGGGGAGCT
Response: 1.04

Prompt: Moving on to the next sequence: TTAGTTTAAG
Response: 0.999

Prompt: Repeat with ATGACACGGA
Response: 1.04

Prompt: Same question for GACGCGGTTC please.
Response: 5.13

Prompt: Same for TAGGTGTGTG
Response: 0.984

Prompt: Please answer likewise for GGGTGAAAAC
Response: 1.03

Prompt: Param item: ACTGATACGT
Response: 1.12

Can you give me switch fluorescence ratio for all of these, one by one?
1. TGTCAGGGGT
2. TTTGCCATTT

Response:
[1.03, 1.02]

Please state switch fluorescence ratio for every sequence in the list that follows.
1. TATGGTTATG
2. TGAGAAATGG

Response:
1.01
1.02

---

System: ATP;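 note: ATP exposure 15 min at 22 °C before imaging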
Experiment: switch fluorescence ratio, 500 uM ATP over buffer (Cy3 cluster intensity, sum of 5 cycles each) (fold (ratio)); higher = stronger signal-on switching upon ATP binding; sequences stand for … in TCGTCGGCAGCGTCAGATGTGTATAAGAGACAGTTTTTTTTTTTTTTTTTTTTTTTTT…TC
Conditions: aptamer strand: ATP DNA aptamer (quencher-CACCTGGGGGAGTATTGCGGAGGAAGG + anchor), 100 nM annealed; ATP concentration: 500 uM
Assign switch fluorescence ratio to each entry below.
Numbers only.

Prompt: What value of switch fluorescence ratio has been recorded for this entry: TTGATCCGCT
Response: 1.74

Prompt: GGTATCGCGG ?
Response: 1

Prompt: Then what about the sequence TATACATTCA ?
Response: 1.07

Prompt: CGTTTATTG ?
Response: 0.997

Prompt: Also GTTAAGAAAG , if possible.
Response: 1.01

Give switch fluorescence ratio for all sequences that follow.
1. AGAGAGGAGT
2. AGGCCTCAGA
3. GGTTCTTATT
4. CGTTCTCCCC
5. GAAGTATGGT
6. TGAGAGGTTA

Response:
0.982
0.973
1.02
1.03
1.01
1.04

---

System: ATP;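 note: ATP exposure 15 min at 22 °C before imaging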
Experiment: switch fluorescence ratio, 500 uM ATP over buffer (Cy3 cluster intensity, sum of 5 cycles each) (fold (ratio)); higher = stronger signal-on switching upon ATP binding; sequences stand for … in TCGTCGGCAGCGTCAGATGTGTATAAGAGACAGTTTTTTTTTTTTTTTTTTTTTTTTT…TC
Details: aptamer strand: ATP DNA aptamer (quencher-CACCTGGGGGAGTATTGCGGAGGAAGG + anchor), 100 nM annealed; ATP concentration: 500 uM
Answer each item with its documented switch fluorescence ratio.
Numbers only.

Prompt: switch fluorescence ratio lookup needed for ACGTTAGGGA , thanks.
Response: 1.07

Answer for every listed entry: what is its switch fluorescence ratio? The entries follow.
1. AACGGGGGCC
2. GGGGACCTAC
3. TTCGGATAAA
4. GGATTTTTTT
5. TGGGTTCACT
6. AAGGGTTACG
7. CCTGTGATAT

Response:
[1.03, 1.08, 1.01, 1, 1.02, 1, 1.3]

# credit: the supplement of paper PMC10126150
